Test: Volume of distribution at steady state in Sprague-Dawley rat at 0.1 mg/kg, iv administered through cassette dosing by LC/MS/MS analysis
Format: ADME, organism-based
Details: in vivo, read-out: Vdss
readout.label: Vd (L/kg)

According to the records, this compound `Cc1c2cc(-n3ccc(OCc4csc(C(F)(F)F)c4)cc3=O)ccc2nn1C1CC1` displays Vd of 0.949

According to the records, this compound `Cc1c2cc(-n3ccc(OCc4ccc(Cl)cc4)cc3=O)ccc2nn1C1CC1` displays Vd of 0.676

---

Molecular target: Melanin-concentrating hormone receptor 1 (Homo sapiens)
Sequence (Q99705 whole entry): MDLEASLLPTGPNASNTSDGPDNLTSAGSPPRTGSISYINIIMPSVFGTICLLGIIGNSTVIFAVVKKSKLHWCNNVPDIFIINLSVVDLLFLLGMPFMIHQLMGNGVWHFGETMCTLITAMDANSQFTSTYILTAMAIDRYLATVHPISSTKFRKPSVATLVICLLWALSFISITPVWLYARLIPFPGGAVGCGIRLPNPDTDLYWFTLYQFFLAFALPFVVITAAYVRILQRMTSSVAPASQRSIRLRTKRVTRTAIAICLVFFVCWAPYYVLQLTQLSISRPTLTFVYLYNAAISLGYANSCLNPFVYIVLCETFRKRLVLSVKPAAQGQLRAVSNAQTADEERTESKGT
Assay: Displacement of [125I]-MCH(4 to 19) from human MCHR1 expressed in CHO cell membranes after 1 hr liquid scintillation counting
pIC50: −log10 of the molar value.
readout.label: pIC50

Record `CCCn1nc2ccc(-n3ccc(OCc4ccc(Cl)cc4)cc3=O)cc2c1C` ; system Melanin-concentrating hormone receptor 1 (Homo sapiens); pIC50 = 6.68

Record `Cc1c2cc(-n3ccc(OCc4ccc(Cl)cc4)cc3=O)ccc2nn1C1CC1` ; system Melanin-concentrating hormone receptor 1 (Homo sapiens); pIC50 = 7.51

1: CCn1nc2ccc(-n3ccc(OCc4ccc(Cl)cc4)cc3=O)cc2c1C
2: Cc1c2cc(-n3ccc(OCc4csc(C(F)(F)F)n4)cc3=O)ccc2nn1C
3: Cc1c2cc(-n3ccc(OCc4csc(C(F)(F)F)c4)cc3=O)ccc2nn1C1CC1
Exam item: list the entries in increasing order of pIC50. # list labels per requested ordering
2, 1, 3
(2: 6.64, 1: 6.85, 3: 7.42)
